The measured values listed here are drawn from patent US20240116985A1.

Molecular target: T1, B-cat-Halo (UniProt P35222 1-781)
T1 sequence (looked up): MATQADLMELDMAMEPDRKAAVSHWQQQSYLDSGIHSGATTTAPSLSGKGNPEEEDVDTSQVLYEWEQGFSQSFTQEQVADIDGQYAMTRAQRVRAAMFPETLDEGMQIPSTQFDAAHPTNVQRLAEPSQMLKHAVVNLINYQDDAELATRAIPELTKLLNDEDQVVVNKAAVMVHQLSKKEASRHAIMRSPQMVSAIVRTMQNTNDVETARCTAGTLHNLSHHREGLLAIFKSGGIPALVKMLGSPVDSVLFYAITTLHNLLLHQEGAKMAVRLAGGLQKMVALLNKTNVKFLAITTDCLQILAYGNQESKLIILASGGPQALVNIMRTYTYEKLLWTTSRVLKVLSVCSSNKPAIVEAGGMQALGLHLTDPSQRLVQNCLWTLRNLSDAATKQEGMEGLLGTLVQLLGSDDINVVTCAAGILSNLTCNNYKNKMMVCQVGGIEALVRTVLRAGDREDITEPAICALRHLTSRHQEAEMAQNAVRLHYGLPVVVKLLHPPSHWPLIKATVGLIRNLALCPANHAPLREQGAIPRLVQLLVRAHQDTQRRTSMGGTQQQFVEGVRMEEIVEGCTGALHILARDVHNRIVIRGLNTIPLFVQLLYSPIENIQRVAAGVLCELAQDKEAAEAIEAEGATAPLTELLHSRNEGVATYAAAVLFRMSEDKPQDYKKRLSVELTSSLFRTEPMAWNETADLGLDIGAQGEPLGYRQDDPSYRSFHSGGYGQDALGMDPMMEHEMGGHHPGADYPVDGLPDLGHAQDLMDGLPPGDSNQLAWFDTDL
Assay: cell-based or functional assay
Starred links: 1 amine or outer side, 2 acyl side, 3 side chain; linkers in the order of their positions; H or OH if unused. Positions of bridges follow the written chain, without caps; N, C: chain ends. Non-standard residues stand in square brackets, D forms with d. Primed or numbered codes have the meaning given here. PyrS2″ = (S)-3-amino-1-((pent-4-en-1-yloxy)carbonyl)pyrrolidine-3-carboxylic acid (stapling residue), C=CCCCOC(=O)N1CC[C@@](N[*:1])(C(=O)[*:2])C1; B5(16) = 2-amino-2-(pent-4-en-1-yl)hept-6-enoic acid = 2,2-bis(4-pentenyl)glycine (stitching residue), C=CCCCC(CCCC=C)(N[*:1])C(=O)[*:2]; B5(4) = 2,2-bis(4-pentenyl)glycine = 2-amino-2-(pent-4-en-1-yl)hept-6-enoic acid (stitching residue), C=CCCCC(CCCC=C)(N[*:1])C(=O)[*:2]; Phe(2-Cl) = N[C@@H](Cc1ccccc1Cl)C(=O)O; Bta = N[C@@H](Cc1csc2ccccc12)C(=O)O; αAllylPro = C=CC[C@@]1(C(=O)O)CCCN1; tBuAla = CC(C)(C)C[C@H](N)C(=O)O; Cha = N[C@@H](CC1CCCCC1)C(=O)O
Readout: NanoBRET Abs IC50 (µM)
Kindly provide the numeric value in µM only, without the unit symbol.

Ac-[αAllylPro]D[Cha][B5(16)]DDAAFN[PyrS2″][Phe(2-Cl)][Bta]S-NH2 (staple 1-4, 4-11) [I-1046]
20.5

Request: I'd like to know its NanoBRET Abs IC50. The binder in question is Ac-[αAllylPro]D[tBuAla][B5(4)]DDAAFL[PyrS2″][Phe(2-Cl)][Bta]Q-NH2 (staple 1-4, 4-11) [I-1062]
Result: 4.7
